target: human GCG receptor (human, UniProt P47871 26-477); experiment: cell-based or functional assay
Sequence (P47871 26-477): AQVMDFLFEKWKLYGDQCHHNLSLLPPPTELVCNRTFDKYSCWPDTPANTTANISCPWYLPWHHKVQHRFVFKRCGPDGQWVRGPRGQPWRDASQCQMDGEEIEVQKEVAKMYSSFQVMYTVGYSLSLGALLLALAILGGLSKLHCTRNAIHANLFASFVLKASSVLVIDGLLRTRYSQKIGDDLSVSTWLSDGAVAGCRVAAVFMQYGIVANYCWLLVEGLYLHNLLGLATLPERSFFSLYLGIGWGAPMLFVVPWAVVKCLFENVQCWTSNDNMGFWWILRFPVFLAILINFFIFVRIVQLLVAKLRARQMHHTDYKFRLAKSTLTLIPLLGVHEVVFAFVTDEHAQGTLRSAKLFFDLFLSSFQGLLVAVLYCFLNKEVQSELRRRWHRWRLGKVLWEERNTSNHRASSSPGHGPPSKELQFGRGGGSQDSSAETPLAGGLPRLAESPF
Bridge positions count the residues as written; N and C are the ends. Square brackets hold non-standard residues; d marks the D form. Ends that are not written are not given here. * marks the point of attachment. Acetyl(2-(4-imidazolyl)) = O=C(Cc1c[nH]cn1)*; Aib = CC(C)(N)C(=O)O
Readings of In vitro activity compared to native peptide (%) vs Glucagon for the listed binders

Worked cases, In vitro activity compared to native peptide (%) vs Glucagon given:
| binder | value_measured |
| --- | --- |
| {Acetyl(2-(4-imidazolyl))}-[Aib]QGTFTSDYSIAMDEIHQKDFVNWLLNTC (bridge 15-19) [Triple agonist of SEQ ID NO: 87] | < 0.1% |
| {Acetyl(2-(4-imidazolyl))}-[Aib]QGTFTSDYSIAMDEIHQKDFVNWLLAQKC (bridge 15-19) [Triple agonist of SEQ ID NO: 92] | < 0.1% |

Report In vitro activity compared to native peptide (%) vs Glucagon, nothing else, for this binder: H[Aib]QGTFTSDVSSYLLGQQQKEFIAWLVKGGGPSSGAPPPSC [Triple agonist of SEQ ID NO: 5]
< 0.1%

The measurements presented in this section are drawn from patent US20230381281A1.
